# System: HeLa Kyoto
# assay_info: melting temperature (median over replicates), in situ; higher = more thermally stable
# details: cell cycle stage: mitosis
readout_type: melting temperature
Don't forget the unit after the number, please.

Reference set (2 entries):
MGRLDGKVIILTAAAQGIGQAAALAFAREGAKVIATDINESKLQELEKYPGIQTRVLDVTKKKQIDQFANEVERLDVLFNVAGFVHHGTVLDCEEKDWDFSMNLNVRSMYLMIKAFLPKMLAQKSGNIINMSSVASSVKGVVNRCVYSTTKAAVIGLTKSVAADFIQQGIRCNCVCPGTVDTPSLQERIQARGNPEEARNDFLKRQKTGRFATAEEIAMLCVYLASDESAYVTGNPVIIDGGWSL [BDH2]    51.3 °C
MAAVSGLVRRPLREVSGLLKRRFHWTAPAALQVTVRDAINQGMDEELERDEKVFLLGEEVAQYDGAYKVSRGLWKKYGDKRIIDTPISEMGFAGIAVGAAMAGLRPICEFMTFNFSMQAIDQVINSAAKTYYMSGGLQPVPIVFRGPNGASAGVAAQHSQCFAAWYGHCPGLKVVSPWNSEDAKGLIKSAIRDNNPVVVLENELMYGVPFEFPPEAQSKDFLIPIGKAKIERQGTHITVVSHSRPVGHCLEAAAVLSKEGVECEVINMRTIRPMDMETIEASVMKTNHLVTVEGGWPQFGVGAEICARIMEGPAFNFLDAPAVRVTGADVPMPYAKILEDNSIPQVKDIIFAIKKTLNI [PDHB]    51.4 °C

Please look at the following sequence next.
melting temperature measured on MADKEKKKKESILDLSKYIDKTIRVKFQGGREASGILKGFDPLLNLVLDGTIEYMRDPDDQYKLTEDTRQLGLVVCRGTSVVLICPQDGMEAIPNPFIQQQDA [LSM7] = 53.7 °C

----------
# Tested on: HeLa Kyoto
# assay_info: melting temperature (median over replicates), in situ; higher = more thermally stable
# details: cell cycle stage: G1/S
Examples of sequences with documented melting temperature follow.
The reply should contain only the number, in °C.

Solved cases below.
MLDSLLALGGLVLLRDSVEWEGRSLLKALVKKSALCGEQVHILGCEVSEEEFREGFDSDINNRLVYHDFFRDPLNWSKTEEAFPGGPLGALRAMCKRTDPVPVTIALDSLSWLLLRLPCTTLCQVLHAVSHQDSCPGDSSSVGKVSVLGLLHEELHGPGPVGALSSLAQTEVTLGGTMGQASAHILCRRPRQRPTDQTQWFSILPDFSLDLQEGPSVESQPYSDPHIPPVDPTTHLTFNLHLSKKEREARDSLILPFQFSSEKQQALLRPRPGQATSHIFYEPDAYDDLDQEDPDDDLDI [ELP5]    54.9
MTLESMMACCLSDEVKESKRINAEIEKQLRRDKRDARRELKLLLLGTGESGKSTFIKQMRIIHGAGYSEEDKRGFTKLVYQNIFTAMQAMIRAMETLKILYKYEQNKANALLIREVDVEKVTTFEHQYVSAIKTLWEDPGIQECYDRRREYQLSDSAKYYLTDVDRIATLGYLPTQQDVLRVRVPTTGIIEYPFDLENIIFRMVDVGGQRSERRKWIHCFENVTSIMFLVALSEYDQVLVESDNENRMEESKALFRTIITYPWFQNSSVILFLNKKDLLEDKILYSHLVDYFPEFDGPQRDAQAAREFILKMFVDLNPDSDKIIYSHFTCATDTENIRFVFAAVKDTILQLNLKEYNLV [GNA11]    51.1
MSDTAVADTRRLNSKPQDLTDAYGPPSNFLEIDIFNPQTVGVGRARFTTYEVRMRTNLPIFKLKESCVRRRYSDFEWLKNELERDSKIVVPPLPGKALKRQLPFRGDEGIFEESFIEERRQGLEQFINKIAGHPLAQNERCLHMFLQEEAIDRNYVPGKVRQ [SNX12]    49.2
MMEDDGQPRTLYVGNLSRDVTEVLILQLFSQIGPCKSCKMITEHTSNDPYCFVEFYEHRDAAAALAAMNGRKILGKEVKVNWATTPSSQKKDTSNHFHVFVGDLSPEITTEDIKSAFAPFGKISDARVVKDMATGKSKGYGFVSFYNKLDAENAIVHMGGQWLGGRQIRTNWATRKPPAPKSTQENNTKQLRFEDVVNQSSPKNCTVYCGGIASGLTDQLMRQTFSPFGQIMEIRVFPEKGYSFVRFSTHESAAHAIVSVNGTTIEGHVVKCYWGKESPDMTKNFQQVDYSQWGQWSQVYGNPQQYGQYMANGWQVPPYGVYGQPWNQQGFGVDQSPSAAWMGGFGAQPPQGQAPPPVIPPPNQAGYGMASYQTQ [TIAL1]    52.3
MFLVGLTGGIASGKSSVIQVFQQLGCAVIDVDVMARHVVQPGYPAHRRIVEVFGTEVLLENGDINRKVLGDLIFNQPDRRQLLNAITHPEIRKEMMKETFKYFLRGYRYVILDIPLLFETKKLLKYMKHTVVVYCDRDTQLARLMRRNSLNRKDAEARINAQLPLTDKARMARHVLDNSGEWSVTKRQVILLHTELERSLEYLPLRFGVLTGLAAIASLLYLLTHYLLPYA [DCAKD]    51.7
MSLLLYYALPALGSYAMLSIFFLRRPHLLHTPRAPTFRIRLGAHRGGSGELLENTMEAMENSMAQRSDLLELDCQLTRDRVVVVSHDENLCRQSGLNRDVGSLDFEDLPLYKEKLEVYFSPGHFAHGSDRRMVRLEDLFQRFPRTPMSVEIKGKNEELIREIAGLVRRYDRNEITIWASEKSSVMKKCKAANPEMPLSFTISRGFWVLLSYYLGLLPFIPIPEKFFFCFLPNIINRTYFPFSCSCLNQLLAVVSKWLIMRKSLIRHLEERGVQVVFWCLNEESDFEAAFSVGATGVITDYPTALRHYLDNHGPAARTS [GDPD3]    56.4

// recorded melting temperature for MTDGILGKAATMEIPIHGNGEARQLPEDDGLEQDLQQVMVSGPNLNETSIVSGGYGGSGDGLIPTGSGRHPSHSTTPSGPGDEVARGIAGEKFDIVKKWGINTYKCTKQLLSERFGRGSRTVDLELELQIELLRETKRKYESVLQLGRALTAHLYSLLQTQHALGDAFADLSQKSPELQEEFGYNAETQKLLCKNGETLLGAVNFFVSSINTLVTKTMEDTLMTVKQYEAARLEYDAYRTDLEELSLGPRDAGTRGRLESAQATFQAHRDKYEKLRGDVAIKLKFLEENKIKVMHKQLLLFHNAVSAYFAGNQKQLEQTLQQFNIKLRPPGAEKPSWLEEQ [ARFIP2] : 51.1

Record summary for MAAAANSGSSLPLFDCPTWAGKPPPGLHLDVVKGDKLIEKLIIDEKKYYLFGRNPDLCDFTIDHQSCSRVHAALVYHKHLKRVFLIDLNSTHGTFLGHIRLEPHKPQQIPIDSTVSFGASTRAYTLREKPQTLPSAVKGDEKMGGEDDELKGLLGLPEEETELDNLTEFNTAHNKRISTLTIEEGNLDIQRPKRKRKNSRVTFSEDDEIINPEDVDPSVGRFRNMVQTAVVPVKKKRVEGPGSLGLEESGSRRMQNFAFSGGLYGGLPPTHSEAGSQPHGIHGTALIGGLPMPYPNLAPDVDLTPVVPSAVNMNPAPNPAVYNPEAVNEPKKKKYAKEAWPGKKPTPSLLI [PPP1R8] : reported melting temperature = 50.4

Record MASGNARIGKPAPDFKATAVVDGAFKEVKLSDYKGKYVVLFFYPLDFTFVCPTEIIAFSNRAEDFRKLGCEVLGVSVDSQFTHLAWINTPRKEGGLGPLNIPLLADVTRRLSEDYGVLKTDEGIAYRGLFIIDGKGVLRQITVNDLPVGRSVDEALRLVQAFQYTDEHGEVCPAGWKPGSDTIKPNVDDSKEYFSKHN [PRDX2] . Reported melting temperature: 55

Measured melting temperature, MASYPYRQGCPGAAGQAPGAPPGSYYPGPPNSGGQYGSGLPPGGGYGGPAPGGPYGPPAGGGPYGHPNPGMFPSGTPGGPYGGAAPGGPYGQPPPSSYGAQQPGLYGQGGAPPNVDPEAYSWFQSVDSDHSGYISMKELKQALVNCNWSSFNDETCLMMINMFDKTKSGRIDVYGFSALWKFIQQWKNLFQQYDRDRSGSISYTELQQALSQMGYNLSPQFTQLLVSRYCPRSANPAMQLDRFIQVCTQLQVLTEAFREKDTAVQGNIRLSFEDFVTMTASRML [PEF1] : 53.5

----------
# Test system: HeLa Kyoto;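 further: HeLa Kyoto cells synchronized by double thymidine or nocodazole block, proteins quantified by TMT10plex mass spectrometry, three independent biological replicates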
# assay_info: melting temperature (median over replicates), in situ; higher = more thermally stable
# details: cell cycle stage: mitosis
Recorded melting temperature, one value per entry.
API: value field is a number in °C; no unit string.

MALTVDVAGPAPWGFRITGGRDFHTPIMVTKVAERGKAKDADLRPGDIIVAINGESAEGMLHAEAQSKIRQSPSPLRLQLDRSQATSPGQTNGDSSLEVLATRFQGSVRTYTESQSSLRSSYSSPTSLSPRAGSPFSPPPSSSSLTGEAAISRSFQSLACSPGLPAADRLSYSGRPGSRQAGLGRAGDSAVLVLPPSPGPRSSRPSMDSEGGSLLLDEDSEVFKMLQENREGRAAPRQSSSFRLLQEALEAEERGGTPAFLPSSLSPQSSLPASRALATPPKLHTCEKCSTSIANQAVRIQEGRYRHPGCYTCADCGLNLKMRGHFWVGDELYCEKHARQRYSAPATLSSRA [PDLIM2]    53.8

Shift focus to the following entry.
For record MSNMEKHLFNLKFAAKELSRSAKKCDKEEKAEKAKIKKAIQKGNMEVARIHAENAIRQKNQAVNFLRMSARVDAVAARVQTAVTMGKVTKSMAGVVKSMDATLKTMNLEKISALMDKFEHQFETLDVQTQQMEDTMSSTTTLTTPQNQVDMLLQEMADEAGLDLNMELPQGQTGSVGTSVASAEQDELSQRLARLRDQV [CHMP1B] the listed melting temperature is 52.2
